pIC50: −log10 of the molar value.
Here we list compounds with their recorded pIC50 when tested on SYK (Homo sapiens, UniProt P43405).
property: pIC50

Use these answered entries as a reference point.
INSERT INTO measurements (mol, observed_result) VALUES
  ('N[C@H]1CCCC[C@H]1Nc1nc(/C=C/c2ccc(Cl)cc2)c2c(c1F)CNC2=O', 8.70),
  ('N[C@H]1COCC[C@H]1Nc1nc(C#Cc2ccccc2)c2c(c1F)CNC2=O', 7.20);

P = N[C@H]1CCCC[C@H]1Nc1nc(-c2cc3n(c2)CCOC3)c2c(c1F)CNC2=O
Q = N[C@H]1COCC[C@H]1Nc1nc(CCc2ccccc2)c2c(c1F)CNC2=O
// task: argmin of pIC50 over [ P , Q ] Refer to your chosen entry by its label in the reply.
Q

----------
biological target: SYK (Homo sapiens, UniProt P43405)
property: IC50 (nM)

The following compounds have reported results that may help.
INSERT INTO assay_data (compound, scale_unit, observed_result) VALUES
  ('N[C@H]1COCC[C@H]1Nc1nc(-c2cc3c(F)cccc3s2)c2c(c1F)CNC2=O [Example 23]', 'nM', 0.398),
  ('N[C@H]1COCC[C@H]1Nc1nc(-c2cc3cc(C(=O)O)ccn3c2)c2c(c1F)CNC2=O [Example 40]', 'nM', 0.2);

A = CCn1cc(-c2nc(N[C@@H]3CCOC[C@@H]3N)c(F)c3c2C(=O)NC3)cn1 [Example 38]
B = N[C@H]1COCC[C@H]1Nc1nc(-c2cc(C3CC3)ns2)c2c(c1F)CNC2=O [Example 6]
Look at A and B . Which one has the lower recorded IC50 number? I would appreciate it if you answered with the label of your choice.
B

----------
For SYK (Homo sapiens, UniProt P43405), measured IC50 is reported for the entries below.
property: IC50 (nM)

Examples from the recorded data:
INSERT INTO assay_data (mol, experimental_target, property, observed_result) VALUES
  ('N[C@H]1COCC[C@H]1Nc1nc(-c2cc3cnccc3s2)c2c(c1F)CNC2=O', 'SYK (Homo sapiens, UniProt P43405)', 'IC50', 0.251),
  ('Cc1ccn2ncc(-c3nc(N[C@@H]4CCCC[C@@H]4N)c(F)c4c3C(=O)N[C@H]4C)c2c1', 'SYK (Homo sapiens, UniProt P43405)', 'IC50', 251),
  ('Cn1ncc2sc(-c3nc(N[C@@H]4CCOC[C@@H]4N)c(F)c4c3C(=O)NC4)cc21', 'SYK (Homo sapiens, UniProt P43405)', 'IC50', 0.1),
  ('Cn1ncc2sc(-c3nc(N[C@@H]4CCCC[C@@H]4N)c(F)c4c3C(=O)NC4)cc21', 'SYK (Homo sapiens, UniProt P43405)', 'IC50', 0.1),
  ('N#Cc1ccc(-c2nc(N[C@@H]3CCOC[C@@H]3N)c(F)c3c2C(=O)NC3)s1', 'SYK (Homo sapiens, UniProt P43405)', 'IC50', 20);

P = Cc1cc(-c2nc(N[C@@H]3CCCC[C@@H]3N)c(F)c3c2C(=O)NC3)sn1
Q = C[C@H]1NC(=O)c2c(-c3cnn4ccc(F)cc34)nc(N[C@@H]3CCCC[C@@H]3N)c(F)c21
R = CCOC(=O)c1ccn2cc(-c3nc(N[C@@H]4CCOC[C@@H]4N)c(F)c4c3C(=O)NC4)cc2c1
// smallest IC50 at index 0, largest at the end Reply format: the labels, ordered as requested.
P, R, Q

----------
target: SYK (Homo sapiens)
pIC50: −log10 of the molar value.
property: pIC50

The following compounds have reported results that may help.
INSERT INTO results (compound, observed_result) VALUES
  ('N[C@H]1CCCC[C@H]1Nc1nc(-c2cc3ccc(F)cc3s2)c2c(c1F)CNC2=O [Example 20]', 9.60),
  ('N[C@H]1COCC[C@H]1Nc1nc(-c2cc3ncccc3s2)c2c(c1F)CNC2=O [Example 25]', 7.90),
  ('N[C@H]1COCC[C@H]1Nc1nc(-c2ccc(F)s2)c2c(c1F)CNC2=O [Example 12]', 7.90);

I = Cc1ccn2ncc(-c3nc(N[C@@H]4CCOC[C@@H]4N)c(F)c4c3C(=O)NC4)c2c1 [Example 58]
II = N[C@H]1COCC[C@H]1Nc1nc(-c2cc3cc(F)ccc3s2)c2c(c1F)CNC2=O [Example 7]
III = N[C@H]1CCCC[C@H]1Nc1nc(-c2ccns2)c2c(c1F)CNC2=O [Example 5]
IV = N#Cc1ccc2sc(-c3nc(N[C@@H]4CCCC[C@@H]4N)c(F)c4c3C(=O)NC4)cc2c1 [Example 22]
V = Cc1cc(-c2nc(N[C@@H]3CCOC[C@@H]3N)c(F)c3c2C(=O)N[C@H]3C)sn1 [Example 57]
// smallest pIC50 at index 0, largest at the end Give the order by naming the labels one after another as requested.
V, I, III, II, IV
